Test: Pharmacokinetics of bendamustine dosed to rats, composition with SBECD and LMWP (Example 25)
Type: in vivo, Female Sprague-Dawley rats
Conditions: female, Sprague-Dawley, rat, plasma, iv; i.v. 10 mg/kg; 1 h post injection; read-out: Concentration of bendamustine in rat plasma, Mean (SEM)
Description: Control: 5 mg/mL bendamustine hydrochloride, 10.2 mg/mL of mannitol in 0.9% NaCl; dose of 10 mg/kg 5 mg/mL bendamustine hydrochloride, 20% w/w sodium sulfobutyl ether β-cyclodextrin, 10.2 mg/g mannitol in water; dose of 10 mg/kg. 5 mg/mL bendamustine hydrochloride, 20% w/w sodium sulfobutyl ether β-cyclodextrin, 1% LMWP, 10.2 mg/g mannitol in water; dose of 10 mg/kg. Female Sprague-Dawley rats (250-350 g). […]

COMPOUND	UNIT	concentration at 1 h
Cn1c(CCCC(=O)O)nc2cc(N(CCCl)CCCl)ccc21	ng/mL	47
